# maps each entry to its concentration at 1 h
test: Drug level in Clostridium difficile infected golden syrian hamster cecum at 20 mg/kg, po qd administered for 5 days measured at 1 hr post dose
Type: ADME, organism-based, Mesocricetus auratus, Caecum
Parameters: dose 20 mg/kg, route oral
condition.description: read-out: Drug uptake
readout.type: concentration at 1 h (µM)

1. CNC(=O)C[C@@H]1NC(=O)c2csc(n2)-c2ccc(-c3nc(N(CCCC(=O)O)C(=O)OCCCC(=O)O)cs3)nc2-c2csc(n2)-c2csc(n2)[C@H]([C@@H](O)c2ccccc2)NC(=O)CNC(=O)c2nc(sc2COC)[C@H](C(C)C)NC(=O)c2nc1sc2C: 129
2. CNC(=O)C[C@@H]1NC(=O)c2csc(n2)-c2ccc(-c3nc(N(CCCCC(=O)O)C(=O)O[C@H]4CC[C@H](C(=O)O)CC4)cs3)nc2-c2csc(n2)-c2csc(n2)[C@H]([C@@H](O)c2ccccc2)NC(=O)CNC(=O)c2nc(sc2COC)[C@H](C(C)C)NC(=O)c2nc1sc2C: 61
3. CNC(=O)C[C@@H]1NC(=O)c2csc(n2)-c2ccc(-c3nc(NC(=O)[C@H]4CC[C@H](C(=O)O)CC4)cs3)nc2-c2csc(n2)-c2csc(n2)[C@H]([C@@H](O)c2ccccc2)NC(=O)CNC(=O)c2nc(sc2COC)[C@H](C(C)C)NC(=O)c2nc1sc2C: 18

###

List of concentration at 1 h values.
test: Plasma concentration in Clostridium difficile infected golden syrian hamster at 20 mg/kg, po qd administered for 5 days measured at 1 hr post dose
Type: ADME, organism-based, Mesocricetus auratus
Parameters: dose 20 mg/kg, route oral
condition.description: golden Syrian, plasma
readout.type: concentration at 1 h (nM)

1. CNC(=O)C[C@@H]1NC(=O)c2csc(n2)-c2ccc(-c3nc(N(CCCC(=O)O)C(=O)OCCCC(=O)O)cs3)nc2-c2csc(n2)-c2csc(n2)[C@H]([C@@H](O)c2ccccc2)NC(=O)CNC(=O)c2nc(sc2COC)[C@H](C(C)C)NC(=O)c2nc1sc2C: 63.9
2. CNC(=O)C[C@@H]1NC(=O)c2csc(n2)-c2ccc(-c3nc(N(CCCCC(=O)O)C(=O)O[C@H]4CC[C@H](C(=O)O)CC4)cs3)nc2-c2csc(n2)-c2csc(n2)[C@H]([C@@H](O)c2ccccc2)NC(=O)CNC(=O)c2nc(sc2COC)[C@H](C(C)C)NC(=O)c2nc1sc2C: 44.8

###

Tested on: Enterococcus faecium
test: Antibacterial activity against Enterococcus faecium 7130724 by broth microdilution method
Format: functional
Documented MIC across a set of compounds
readout.type: MIC (µg/mL)

1. CNC(=O)C[C@@H]1NC(=O)c2csc(n2)-c2ccc(-c3nc(N(CCCC(=O)O)C(=O)CCCCC(=O)O)cs3)nc2-c2csc(n2)-c2csc(n2)[C@H]([C@@H](O)c2ccccc2)NC(=O)CNC(=O)c2nc(sc2COC)[C@H](C(C)C)NC(=O)c2nc1sc2C: 32
2. CNC(=O)C[C@@H]1NC(=O)c2csc(n2)-c2ccc(-c3nc(N(CCCC(=O)O)C(=O)O[C@H]4CC[C@H](C(=O)O)CC4)cs3)nc2-c2csc(n2)-c2csc(n2)[C@H]([C@@H](O)c2ccccc2)NC(=O)CNC(=O)c2nc(sc2COC)[C@H](C(C)C)NC(=O)c2nc1sc2C: 0.06

###

Tested on: Enterococcus faecium
test: Antibacterial activity against Enterococcus faecium 7130724 by broth microdilution method
Format: functional
Documented MIC across a set of molecules
readout.type: MIC

1. CNC(=O)C[C@@H]1NC(=O)c2csc(n2)-c2ccc(-c3nc(N(CCCCC(=O)O)C(=O)N[C@H]4CC[C@H](C(=O)O)CC4)cs3)nc2-c2csc(n2)-c2csc(n2)[C@H]([C@@H](O)c2ccccc2)NC(=O)CNC(=O)c2nc(sc2COC)[C@H](C(C)C)NC(=O)c2nc1sc2C: > 32 µg/mL
2. CNC(=O)C[C@@H]1NC(=O)c2csc(n2)-c2ccc(-c3nc(N(CCCCC(=O)O)C(=O)O[C@H]4CC[C@H](C(=O)O)CC4)cs3)nc2-c2csc(n2)-c2csc(n2)[C@H]([C@@H](O)c2ccccc2)NC(=O)CNC(=O)c2nc(sc2COC)[C@H](C(C)C)NC(=O)c2nc1sc2C: < 0.06 µg/mL
3. CNC(=O)C[C@@H]1NC(=O)c2csc(n2)-c2ccc(-c3nc(N(CCCCC(=O)O)C(=O)[C@H]4CC[C@@H](C(=O)O)O4)cs3)nc2-c2csc(n2)-c2csc(n2)[C@H]([C@@H](O)c2ccccc2)NC(=O)CNC(=O)c2nc(sc2COC)[C@H](C(C)C)NC(=O)c2nc1sc2C: > 32 µg/mL
4. CNC(=O)C[C@@H]1NC(=O)c2csc(n2)-c2ccc(-c3nc(N(CCCC(=O)O)C(=O)CCCC(=O)O)cs3)nc2-c2csc(n2)-c2csc(n2)[C@H]([C@@H](O)c2ccccc2)NC(=O)CNC(=O)c2nc(sc2COC)[C@H](C(C)C)NC(=O)c2nc1sc2C: > 32 µg/mL

###

System: Escherichia coli
test: Inhibition of protein synthesis in Escherichia coli S30 extract at 2 uM after 75 mins by luciferase based luminescence assay relative to GE2270A
Format: functional
readout.type: inhibition at 2 µM (%)

1) CNC(=O)C[C@@H]1NC(=O)c2csc(n2)-c2ccc(-c3nc(N(CCCCC(=O)O)C(=O)OC(CCCCC(=O)O)CCC(=O)O)cs3)nc2-c2csc(n2)-c2csc(n2)[C@H]([C@@H](O)c2ccccc2)NC(=O)CNC(=O)c2nc(sc2COC)[C@H](C(C)C)NC(=O)c2nc1sc2C (stereo partly specified): 50
2) CNC(=O)C[C@@H]1NC(=O)c2csc(n2)-c2ccc(-c3nc(NC(=O)[C@H]4CC[C@H](C(=O)O)CC4)cs3)nc2-c2csc(n2)-c2csc(n2)[C@H]([C@@H](O)c2ccccc2)NC(=O)CNC(=O)c2nc(sc2COC)[C@H](C(C)C)NC(=O)c2nc1sc2C: 30
3) CNC(=O)C[C@@H]1NC(=O)c2csc(n2)-c2ccc(-c3nc(N(CCCCC(=O)O)C(=O)NCCCC(=O)O)cs3)nc2-c2csc(n2)-c2csc(n2)[C@H]([C@@H](O)c2ccccc2)NC(=O)CNC(=O)c2nc(sc2COC)[C@H](C(C)C)NC(=O)c2nc1sc2C: 30
4) CNC(=O)C[C@@H]1NC(=O)c2csc(n2)-c2ccc(-c3nc(N(CC(CC(=O)O)OC)C(=O)O[C@H]4CC[C@H](C(=O)O)CC4)cs3)nc2-c2csc(n2)-c2csc(n2)[C@H]([C@@H](O)c2ccccc2)NC(=O)CNC(=O)c2nc(sc2COC)[C@H](C(C)C)NC(=O)c2nc1sc2C (stereo partly specified): 67
5) CNC(=O)C[C@@H]1NC(=O)c2csc(n2)-c2ccc(-c3nc(NC(=O)N4C[C@H](CCC(=O)O)C[C@H](CCC(=O)O)C4)cs3)nc2-c2csc(n2)-c2csc(n2)[C@H]([C@@H](O)c2ccccc2)NC(=O)CNC(=O)c2nc(sc2COC)[C@H](C(C)C)NC(=O)c2nc1sc2C: 30
6) CNC(=O)C[C@@H]1NC(=O)c2csc(n2)-c2ccc(-c3nc(N(CCCC(=O)O)C(=O)O[C@H]4CC[C@H](C(=O)O)CC4)cs3)nc2-c2csc(n2)-c2csc(n2)[C@H]([C@@H](O)c2ccccc2)NC(=O)CNC(=O)c2nc(sc2COC)[C@H](C(C)C)NC(=O)c2nc1sc2C: 67

Sourced from ChEMBL document CHEMBL2062386
